Attribution: patent US11639350B2

# assay text: Cytotoxicity determination in HepG2.2.15 cells (CCK-8)
# Type: cell-based
# test conditions: human, 6 days of compound treatment, CCK-8, highest concentration 100 μM
# Protocol: HBV replication inhibition by the compounds of this invention as well as cytotoxicity determination was determined in cells infected or transfected with HBV, or cells with stably integrated HBV, such as HepG2.2.15 cells (Sells et al. 1987). The method used herein is as follows. […] EC50 and CC50 values are calculated by the GraphPad Prism software and are averages where multiple measurements were made. […]
parameter: log10(CC50 at 6 days) (log10 of the value in µM)
Each number you see is log10 of CC50 at 6 days, and the unit inside the log is µM.

Check out these entries, answers already filled in.
[
  {
    "compound": "COC(=O)C1=C(C23CC(NS(C)(=O)=O)(C2)C3)NC(c2nccs2)=NC1c1ccc(F)cc1Cl (single isomer, unassigned) [Compound 372Y]",
    "log10(CC50 at 6 days)": 1.50
  },
  {
    "compound": "COC(=O)C1=C([C@H]2CC[C@@H](C(=O)OC)O2)NC(c2nccs2)=NC1c1cccc(F)c1Cl (single isomer, unassigned) [Compound 73H]",
    "log10(CC50 at 6 days)": 1.52
  }
]

Below are 8 compounds. Give each one its log10(CC50 at 6 days).
1. CCOC(=O)C1=C(C2CCN(S(=O)(=O)[C@H]3C[C@H](C(=O)O)C3)CC2)NC(c2nccs2)=NC1c1ccc(F)c(F)c1C (single isomer, unassigned) [Compound 343A]
2. CCOC(=O)C1=C(C2CCN(S(=O)(=O)[C@H]3C[C@H](C(=O)O)C3)CC2)NC(c2c(F)cc(F)cc2F)=NC1c1ccc(F)c(F)c1Cl (stereo partly drawn) [Compound 195A]
3. COC(=O)C1=C(C23CC(C(=O)O)(C2)C3)NC(c2nccs2)=NC1c1ccc(F)cc1Cl (stereo not drawn) [Compound 258B]
4. COC(=O)C1=C(C2CCN(S(=O)(=O)[C@H]3C[C@H](CO)C3)CC2)NC(c2nccs2)=N[C@@H]1c1ccc(F)cc1Cl [Compound 357A]
5. CCOC(=O)C1=C([C@H]2CC[C@H](C(=O)O)CC2)NC(c2nccs2)=NC1c1ccc(F)c(F)c1Cl (single isomer, unassigned) [Compound 345A]
6. COC(=O)C1=C(C2CCN(S(=O)(=O)c3cnn(CCCCC(=O)O)c3)CC2)NC(c2nccs2)=NC1c1ccc(F)cc1Cl (stereo not drawn)
7. COC(=O)C1=C([C@H]2CC[C@H](C(=O)OC)CC2)NC(c2nccs2)=NC1c1cccc(F)c1Cl (single isomer, unassigned) [Compound 16X]
8. COC(=O)C1=C(C2CCN(S(C)(=O)=O)CC2)NC(c2nccs2)=NC1c1cccc(F)c1Cl (single isomer, unassigned) [Compound 112B]

Response:
1. 1.61
2. 1.64
3. 1.44
4. 1.13
5. 1.53
6. 1.51
7. 1.47
8. 0.91

// batch mode: one log10(CC50 at 6 days) value per listed entry
1. COC(=O)C1=C([C@H]2CC[C@H](S(=O)(=O)N(C)C)CC2)NC(c2nccs2)=NC1c1ccc(F)c(F)c1Cl (single isomer, unassigned) [Compound 233C]
2. COC(=O)C1=C(C2CCN(S(=O)(=O)c3cn(C)cn3)CC2)NC(c2nccs2)=NC1c1ccc(F)cc1Cl (stereo not drawn) [Compound 201A]
3. COC(=O)C1=C(C2CCN(S(C)(=O)=O)CC2)NC(c2c(F)cc(F)cc2F)=NC1c1ccc(F)cc1Cl (single isomer, unassigned) [Compound 54A]
4. CCOC(=O)C1=C([C@@H]2CC[C@H](C(=O)O)OC2)NC(c2nccs2)=NC1c1ccc(F)cc1Cl (single isomer, unassigned) [Compound 265E]
5. COC(=O)C1=C(C2CCN(S(=O)(=O)CC(C)(C)C(=O)O)CC2)NC(c2nccs2)=NC1c1ccc(F)cc1Cl (stereo not drawn)
6. COC(=O)C1=C(C2CCN(S(=O)(=O)[C@H]3C[C@H](C(=O)O)C3)CC2)NC(c2nccs2)=NC1c1ccc(F)cc1Cl (relative stereo) [Compound 285A]

Response:
0.75
1.20
1.49
1.97
1.70
1.83

Please give log10(CC50 at 6 days), item by item, for the list that follows.
1. COC(=O)C1=C([C@H]2CC[C@H](C(=O)O)CC2)NC(c2nccs2)=NC1c1cccc(F)c1Br (stereo partly drawn) [Compound 152A]
2. COC(=O)C1=C(C2CCN(S(C)(=O)=O)CC2)NC(c2nccs2)=NC1c1ccc(Cl)c(F)c1 (single isomer, unassigned) [Compound 124B]
3. CCOC(=O)C1=C([C@H]2C[C@@H](NS(C)(=O)=O)C2(C)C)NC(c2nccs2)=NC1c1ccc(F)cc1Cl (single isomer, unassigned) [Compound 437A]
4. COC(=O)C1=C(C2CCN(S(=O)(=O)CCOCCOCCO)CC2)NC(c2nccs2)=NC1c1ccc(F)cc1Cl (stereo not drawn)

Response:
1. 1.60
2. 0.82
3. 1.02
4. 1.63
